The entries below pair compounds with IC50 values for UniProt:P53779, as found in several publications.

Query: Give reported IC50 value for O=C(Cn1c(=O)ccc2cc(C(F)(F)F)ccc21)N(CCCN1CCCC1)c1scc(Cl)c1-c1nc[nH]n1
Response: 100 to 10000 nM

Query: Give reported IC50 value for CN1CCN([C@H]2CC[C@@H](c3cnc4[nH]cc(-c5nc(C(F)(F)F)cs5)c4c3)CC2)CC1
Response: 603 nM

Query: Give reported IC50 value for CC(=O)Nc1cccc(-c2cnc3[nH]ccc3c2)c1
Response: ≤ 10000 nM

Query: Give reported IC50 value for COCn1nnnc1-c1ccsc1NC(=O)Cc1ccc(OC)cc1
Response: 100 to 10000 nM

Query: Give reported IC50 value for c1nc(-c2c[nH]c3ncc(C4CCCCC4)cc23)cs1
Response: 89 nM

Query: Give reported IC50 value for NC(=O)c1cccc(-c2cnc3[nH]cc(C(=O)c4cc(O)ccc4F)c3c2)c1
Response: ≤ 10000 nM

Query: Give reported IC50 value for O=C(CN1C(=O)CCc2ncccc21)Nc1scc(Br)c1-c1nccs1
Response: < 100 nM

Query: Give reported IC50 value for CCCS(=O)(=O)Nc1ccc(F)c(C(=O)c2c[nH]c3ncc(-c4ccc(C(=O)N(C)C)cc4)cc23)c1F
Response: ≤ 10000 nM

Query: Give reported IC50 value for CC(O)CNc1nccc(-n2c(CC#N)cnc2-c2ccc(F)c(C(F)(F)F)c2)n1 (centres unmarked)
Response: 30 to 100 nM

Query: Give reported IC50 value for Cc1nnc(-c2c(C)csc2NC(=O)Cc2ccc(-c3ccncc3)cc2)[nH]1
Response: 100 to 10000 nM

Query: Give reported IC50 value for O=C(Cc1cccc2ncsc12)Nc1scc(Br)c1-c1ncn[nH]1
Response: < 100 nM

Query: Give reported IC50 value for Cn1cc(-c2c[nH]c3ncc([C@H]4CC[C@H](NCCO)CC4)cc23)cn1
Response: 191 nM

Query: Give reported IC50 value for O=C(c1nc(-c2c[nH]c3ncc([C@H]4CC[C@@H](N5CCOCC5)CC4)cc23)cs1)N1CCOCC1
Response: 1330 nM

Query: Give reported IC50 value for N#CCc1cnc(-c2ccc3c(c2)OCO3)n1-c1ccnc(NC2CCOCC2)n1
Response: 30 to 100 nM

Query: Give reported IC50 value for CC(C)NC(=O)c1cc(-n2ncc3nc(Nc4ccccc4Cl)ccc32)cs1
Response: < 200 nM

Query: Give reported IC50 value for COc1nc(-c2c[nH]c3ncc([C@H]4CC[C@H](N5CCOCC5)CC4)cc23)cs1
Response: 479 nM

Query: Give reported IC50 value for O=C(Cn1c(=O)ccc2cc(C(F)(F)F)ccc21)Nc1scc(Br)c1-n1nccn1
Response: < 100 nM

Query: Give reported IC50 value for Cn1cc(-c2c[nH]c3ncc(C4CCCCC4)cc23)cn1
Response: 40 nM

Query: Give reported IC50 value for Cc1nc(-c2c[nH]c3ncc([C@H]4CC[C@@H](N5CCCOCC5)CC4)cc23)cs1
Response: > 1000 nM

Query: Give reported IC50 value for Cc1c(-c2c[nH]c3ncc([C@H]4CC[C@H](N5CCOCC5)CC4)cc23)cnn1C
Response: 1510 nM

Query: Give reported IC50 value for CN(C)C(=O)c1nc(-c2c[nH]c3ncc(C4CCCCC4)cc23)cs1
Response: 147 nM

Query: Give reported IC50 value for O=C(Cc1ccc2ccc(C(F)(F)F)nc2c1)Nc1scc(Br)c1-c1nc[nH]n1
Response: 100 to 10000 nM

Query: Give reported IC50 value for O=C(Cc1c(F)ccc2ncccc12)Nc1scc(Br)c1-c1ncn[nH]1
Response: < 100 nM

Query: Give reported IC50 value for NC(=O)c1cccc(-c2cnc3[nH]cc(C(=O)c4cccc(N)c4)c3c2)c1
Response: ≤ 10000 nM

Query: Give reported IC50 value for CN(C)C1CCC(c2cnc3[nH]cc(-c4cnn(CCN5CCOCC5)c4)c3c2)CC1 (mixture of isomers)
Response: 71 nM

Query: Give reported IC50 value for Cn1cc(-c2c[nH]c3ncc(Cn4ccc5ccccc54)cc23)cn1
Response: < 500 nM

Query: Give reported IC50 value for CC(C)CN(CC(=O)NCCCCNC(=O)c1ccc(-c2n[nH]c3ccccc23)cc1)C(=O)c1ccc2c(c1)OCCO2
Response: 65 nM

Query: Give reported IC50 value for Cc1ccccc1NC(=O)Nc1cccc(C(=O)c2c[nH]c3ncccc23)c1
Response: ≤ 10000 nM

Query: Give reported IC50 value for COc1ccc(CC(=O)Nc2ccsc2N2CCOC2=O)cc1
Response: > 10000 nM

Query: Give reported IC50 value for O=C(NCc1ccc(S(=O)(=O)N2CCC(n3nnc4ccccc43)CC2)s1)c1ccccc1O
Response: 360 nM

Query: Give reported IC50 value for FC(F)n1cc(-c2c[nH]c3ncc(C4=CCC(N5CCOCC5)CC4)cc23)cn1 (centres unmarked)
Response: 339 nM

Query: Give reported IC50 value for COc1ccc(CC(=O)Nc2ccsc2-c2nc(C(F)(F)F)n[nH]2)cc1
Response: 100 to 10000 nM

Query: Give reported IC50 value for Cn1cc(-c2c[nH]c3ncc(C4CCC5(CC4)OCCO5)cc23)cn1
Response: 25 nM

Query: Give reported IC50 value for O=C(Cn1c(=O)ccc2c(F)cccc21)Nc1scc(Br)c1-c1ncn[nH]1
Response: < 100 nM

Query: Give reported IC50 value for O=C(Cn1c(=O)ccc2cc(Br)ccc21)Nc1scc(Cl)c1-c1nc[nH]n1
Response: < 100 nM

###

pIC50: −log10 of the molar value.
The entries below pair compounds with pIC50 values for UniProtKB P53779, as found in several publications.

Query: Give reported pIC50 value for O=C(Cn1c(=O)ccc2cc(C(F)(F)F)ccc21)Nc1scc(Br)c1-c1ncn[nH]1
Response: > 7.00

Query: Give reported pIC50 value for COc1ccc(CC(=O)Nc2ccsc2-c2nc(C(C)(C)C)n[nH]2)cc1
Response: 5.00 to 7.00

Query: Give reported pIC50 value for O=C(Cc1cccc2cnccc12)Nc1ccsc1-c1cscn1
Response: 5.00 to 7.00

Query: Give reported pIC50 value for Cc1ccccc1Oc1cnc2[nH]cc(-c3cnn(C)c3)c2c1
Response: > 6.30

Query: Give reported pIC50 value for COc1cccc(C(=O)c2c[nH]c3ncc(-c4cccs4)cc23)c1
Response: ≥ 5.00

Query: Give reported pIC50 value for CCOc1nc(-c2c[nH]c3ncc([C@H]4CC[C@H](N5CCCOCC5)CC4)cc23)cs1
Response: 6.28

Query: Give reported pIC50 value for CCCCNC(=O)Nc1cccc(C(=O)c2c[nH]c3ncc(-c4cccnc4)cc23)c1
Response: ≥ 5.00

Query: Give reported pIC50 value for COCCOc1ccc(F)c(Cc2c[nH]c3ncc(-c4cccnc4)cc23)c1F
Response: ≥ 5.00

Query: Give reported pIC50 value for O=C(NCc1ccc(S(=O)(=O)N2CCC(n3cnc4ccccc43)CC2)s1)c1ccc(Cl)cc1
Response: 6.64

Query: Give reported pIC50 value for CNC(=O)c1cc(-n2ncc3nc(Nc4ccccc4Cl)ncc32)cs1
Response: 6.00 to 6.70

Query: Give reported pIC50 value for CC1CCC(c2cnc3[nH]cc(-c4csc(C(=O)N5CCCCC5)n4)c3c2)CC1 (stereo not drawn)
Response: 6.86

Query: Give reported pIC50 value for O=C(O)/C=C/c1cccc(-c2cnc3[nH]cc(C(=O)c4ccc(Cl)cc4Cl)c3c2)c1
Response: ≥ 5.00

Query: Give reported pIC50 value for O=C(NCCCF)c1cc(-n2ncc3cc(Oc4ccccc4Cl)cnc32)cs1
Response: > 6.70

Query: Give reported pIC50 value for N#CCc1cnc(-c2ccc3c(c2)OCCO3)n1-c1ccnc(NC2CCOCC2)n1
Response: < 7.00

Query: Give reported pIC50 value for Clc1ccc(Nc2cnc3[nH]ccc3c2)cc1
Response: ≥ 5.00

Query: Give reported pIC50 value for COc1cccc(NC(=O)Nc2cccc(C(=O)c3c[nH]c4ncccc34)c2)c1
Response: ≥ 5.00

Query: Give reported pIC50 value for Cn1cc(-c2c[nH]c3ncc([C@H]4CC[C@H](N5CCCC5)CC4)cc23)cn1
Response: 7.08

Query: Give reported pIC50 value for COc1ccc(CC(=O)Nc2ccsc2-c2nc(-c3ccncc3)n[nH]2)cc1
Response: < 5.00
